SYSTEM UNDER TEST: T1, soluble human insulin receptor-immunoglobulin heavy chain chimera (human, UniProt P06213 28-956, limits assumed)
T1 construct: extracellular domain; also called sIR-Fc; IR (prepared according to Bass et al., 1996); not shown: immunoglobulin heavy chain constant domains (Bass et al., 1996)
ASSAY PROCEDURE: phage ELISA
Threshold 1 ratio. ratio over background below it: Yes. ratio over background at it or above: No.

Please indicate whether the reported ratio over background of QFYGCLLDLSLGVPSFGWRRRCITA (on phage) [20C-3-A4-IGFR] is strictly below 1 ratio.
No

Please indicate whether the reported ratio over background of FRTLAAQHDSFYDWFDRQVSGAAGER (on phage) [H2CA-3-C11-IGFR] is strictly below 1 ratio.
No

Please indicate whether the reported ratio over background of AQPCGGFYGLLEQLVGRSVCD (on phage) [20E2B-4-F10-IGFR] is strictly below 1 ratio.
No

Please indicate whether the reported ratio over background of SSYGCDGFYLMLFSLGLVASQELEC (on phage) [20C-3-A1-IGFR] is strictly below 1 ratio.
No

Please indicate whether the reported ratio over background of QGNVLDFYGWIGRLLAKQGSD (on phage) [20E2B-3-D12-IGFR] is strictly below 1 ratio.
Yes

Please indicate whether the reported ratio over background of FFYDCLAALLQGVARYHDLCAVEIT (on phage) [20C-4-C7-IGFR] is strictly below 1 ratio.
No

Please indicate whether the reported ratio over background of GCEVIVEEGDSADPFYHKLSELCQGS (on phage) [B6Hα-2-D1-IR] is strictly below 1 ratio.
No

Please indicate whether the reported ratio over background of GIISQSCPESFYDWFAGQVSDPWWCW (on phage) [H2CA-4-G9-IGFR] is strictly below 1 ratio.
Yes

Please indicate whether the reported ratio over background of IQQELTFYDLLHRLVRSELGS (on phage) [20E2B-3-D2-IGFR] is strictly below 1 ratio.
No

Please indicate whether the reported ratio over background of LSSDGQFYRALNLLLQGSAGR (on phage) [20E2B-2-B7-IGFR] is strictly below 1 ratio.
Yes

Please indicate whether the reported ratio over background of YRGMLVLGRSSDGAGKVAFERPARIGQTVFAVNFYDWFV (on phage) [A6L-0-E6-IR] is strictly below 1 ratio.
No

Please indicate whether the reported ratio over background of IIGGFYSYFNSVLRLGT (on phage) [NNRPγ-4-A1-IR] is strictly below 1 ratio.
No

These data points were gathered from patent US20040023887A1.
